# target.entity: ΔF508-CFTR (Homo sapiens, UniProt P13569, DEL508-508)
# Construct: host or cells: CFBE41o-, doxycycline-inducible
# Sequence (P13569 with tags, fused parts or gaps DEL508-508): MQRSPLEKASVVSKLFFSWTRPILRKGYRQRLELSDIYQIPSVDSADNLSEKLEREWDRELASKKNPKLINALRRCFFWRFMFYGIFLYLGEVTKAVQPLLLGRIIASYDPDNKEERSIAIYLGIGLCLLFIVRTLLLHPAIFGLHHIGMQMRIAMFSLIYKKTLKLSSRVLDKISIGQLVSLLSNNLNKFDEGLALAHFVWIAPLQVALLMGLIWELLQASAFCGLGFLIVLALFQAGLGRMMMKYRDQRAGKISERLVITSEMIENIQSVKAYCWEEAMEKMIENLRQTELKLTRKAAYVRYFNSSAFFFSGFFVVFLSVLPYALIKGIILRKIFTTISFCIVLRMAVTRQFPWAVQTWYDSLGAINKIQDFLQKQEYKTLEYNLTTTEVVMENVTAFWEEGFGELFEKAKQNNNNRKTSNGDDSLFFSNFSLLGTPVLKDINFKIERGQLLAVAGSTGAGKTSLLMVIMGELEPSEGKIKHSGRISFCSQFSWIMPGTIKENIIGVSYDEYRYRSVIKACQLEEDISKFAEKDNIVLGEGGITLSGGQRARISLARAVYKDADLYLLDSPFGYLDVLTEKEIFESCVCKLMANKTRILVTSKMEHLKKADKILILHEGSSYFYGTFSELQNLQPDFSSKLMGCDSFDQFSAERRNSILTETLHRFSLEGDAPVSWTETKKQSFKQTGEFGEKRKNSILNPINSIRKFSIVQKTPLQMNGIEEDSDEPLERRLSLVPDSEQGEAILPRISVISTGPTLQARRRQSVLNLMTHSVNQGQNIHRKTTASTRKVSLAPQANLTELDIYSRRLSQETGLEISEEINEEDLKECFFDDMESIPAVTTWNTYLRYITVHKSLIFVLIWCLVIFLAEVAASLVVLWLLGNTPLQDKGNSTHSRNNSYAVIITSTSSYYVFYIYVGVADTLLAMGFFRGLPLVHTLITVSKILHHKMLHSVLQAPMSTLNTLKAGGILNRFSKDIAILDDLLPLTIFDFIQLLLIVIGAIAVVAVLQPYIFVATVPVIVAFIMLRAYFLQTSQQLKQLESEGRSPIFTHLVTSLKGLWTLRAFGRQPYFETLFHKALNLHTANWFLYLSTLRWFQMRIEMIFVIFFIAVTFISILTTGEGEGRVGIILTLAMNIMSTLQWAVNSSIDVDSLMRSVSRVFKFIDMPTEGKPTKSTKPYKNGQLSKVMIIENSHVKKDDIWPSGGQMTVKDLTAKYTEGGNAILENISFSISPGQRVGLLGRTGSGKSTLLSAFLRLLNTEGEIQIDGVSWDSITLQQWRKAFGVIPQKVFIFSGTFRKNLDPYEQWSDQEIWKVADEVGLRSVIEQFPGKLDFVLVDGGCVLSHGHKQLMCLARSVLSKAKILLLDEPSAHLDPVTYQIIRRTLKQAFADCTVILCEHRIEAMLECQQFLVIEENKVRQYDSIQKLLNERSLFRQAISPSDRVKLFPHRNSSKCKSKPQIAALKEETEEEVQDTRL
# method.notes: CFTR cell surface levels using HRP-tagged ΔF508-CFTR expressing CFBE cells, intrinsic corrector capacity
# Assay type: cell-based
# experimental.parameters: HRP-tagged ΔF508-CFTR expressing CFBE41o- cells; compound alone (intrinsic corrector capacity); 20 hours at 33° C.; read-out: EC50
pEC50: −log10 of the molar value.
Catalogue of pEC50 readings, one per entry.

{"columns": ["compound", "pEC50"],
 "data": [
  ["COC1CCN(c2cc(C(=O)NS(=O)(=O)C3CCN(C(=O)OCc4ccccc4)CC3)nc3c2c(C2CCC2)nn3-c2ccccc2)CC1", 6.40],
  ["CN(C)S(=O)(=O)NC(=O)c1cc(N2CCC(N3CCC(F)C3)CC2)c2c(C3CCC3)nn(-c3ccc(F)cc3)c2n1 (stereo not shown)", 6.35],
  ["CN1CCN(S(=O)(=O)NC(=O)c2cc(N3CCC(N4CCOCC4)CC3)c3c(C4CCC4)nn(-c4ccc(F)cc4)c3n2)CC1", 5.92],
  ["O=C(NS(=O)(=O)N1CCC(F)CC1)c1cc(N2CCC(CN3CCCC3)CC2)c2c(C3CCC3)nn(-c3ccccc3)c2n1", 6.83],
  ["CN(C)S(=O)(=O)NC(=O)c1cc(N2CCC(N3CCCCC3)CC2)c2c(C3CCC3)nn(-c3ccc(F)cc3)c2n1", 6.17],
  ["CS(=O)(=O)NC(=O)c1cc(N2CCC(N3CCCC(C(F)(F)F)C3)CC2)c2c(C3CCC3)nn(-c3ccc(F)cc3)c2n1 (stereo not shown)", 7.28],
  ["CC(C)N1CCN(C2CCN(c3cc(C(=O)NS(=O)(=O)N4CCC4)nc4c3c(C3CCC3)nn4-c3ccc(F)cc3)CC2)CC1", 6.69],
  ["CC(C)Oc1nn(C2CCCCC2)c2nc(C(=O)NS(=O)(=O)N(C)C)cc(-c3ccc(CN4CCN(C)CC4)cc3)c12", 6.51],
  ["CC(C)c1nn(-c2ccc(F)cc2)c2nc(C(=O)NS(C)(=O)=O)cc(OCC3CCCO3)c12 (stereo not shown)", 5.98],
  ["CC(C)c1nn(-c2ccc(F)c(F)c2)c2nc(C(=O)NS(C)(=O)=O)cc(-c3ccc(N4CCOCC4)cc3)c12", 6.29],
  ["CCS(=O)(=O)NC(=O)c1cc(-c2cnc(N3CCOCC3)nc2)c2c(C(C)C)nn(-c3cccc(N(C)C)c3)c2n1", 6.22],
  ["Cc1cccc(-n2nc(C(C)C)c3c(N4CCC(S(C)(=O)=O)CC4)cc(C(=O)NS(C)(=O)=O)nc32)c1", 5.75],
  ["CS(=O)(=O)NC(=O)c1cc(-c2ccc(N3CCC(C#N)CC3)nc2)c2c(C3CC(F)C3)nn(-c3ccccc3)c2n1 (stereo not shown)", 6.40]
]}

----------
# target.entity: CFTR ΔF508 (Homo sapiens, UniProt P13569, DEL508-508)
# Construct: bronchial epithelial cells isolated from CF patients homozygous for the CFTR ΔF508 mutation; McGill University; Asterand; University of North Carolina hAEC-CF; host or cells: primary human bronchial epithelial cells from CF patients homozygous for ΔF508, differentiated at air-liquid interface
# method.notes: Chronic TECC assay, primary bronchial epithelial cells of CF patients homozygous for CFTR ΔF508 (corrector, co-corrector and potentiator)
# Type: cell-based
# experimental.parameters: chronic TECC; test compound at 1 μM; AUC = full area under the curve upon forskolin stimulation
Catalogue of % Activity at 1 μM (AUC**) readings, one per entry.

{"columns": ["compound.smiles", "% Activity at 1 μM (AUC**) [%]"],
 "data": [
  ["CS(=O)(=O)NC(=O)c1cc(-c2ccc(N3CCC(C#N)CC3)nc2)c2c(C3CCC3)nn(-c3ccnc(N4CCOCC4)c3)c2n1", 250],
  ["CN(C)S(=O)(=O)NC(=O)c1cc(N2CCC(N3CCC(F)(F)CC3)CC2)c2c(C3CCC3)nn(-c3ccc(F)cc3)c2n1", 400],
  ["CC(C)Oc1nn(C2CCCCC2)c2nc(C(=O)NS(C)(=O)=O)cc(-c3ccc(CN4CCN(C5CC5)CC4)cc3)c12", 263.3333]
]}

----------
# target.entity: ΔF508-CFTR (Homo sapiens, UniProt P13569, DEL508-508)
# Construct: host or cells: CFBE41o-, doxycycline-inducible
# method.notes: CFTR cell surface levels using HRP-tagged ΔF508-CFTR expressing CFBE cells, in the presence of a co-corrector
# Format: cell-based
# experimental.parameters: HRP-tagged ΔF508-CFTR CFBE cells, in the presence of 3 μM co-corrector; read-out: EC50
pEC50: −log10 of the molar value.
Catalogue of pEC50 readings, one per entry.

{"columns": ["compound", "pEC50"],
 "data": [
  ["COCCN(C)c1ccc(-c2cc(C(=O)NS(C)(=O)=O)nc3c2c(C(C)C)nn3-c2cccc(N(C)C)c2)cn1", 6.39],
  ["CCS(=O)(=O)NC(=O)c1cc(-c2ccc(N3CCOCC3)cc2)c2c(C)nn(-c3ccccc3)c2n1", 6.43],
  ["CC(C)Oc1nn(C2CCCCC2)c2nc(C(=O)NS(C)(=O)=O)cc(-c3ccc(CN4CC5CN(C)CC5C4)cc3)c12 (stereo not drawn)", 6.36],
  ["CN1CCCN(C(=O)c2cc(N3CCC(N4CCOCC4)CC3)c3c(C4CCC4)nn(-c4ccccc4)c3n2)S1(=O)=O", 6.76],
  ["CC(C)c1nn(-c2ccc(F)cc2F)c2nc(C(=O)NS(C)(=O)=O)cc(-c3ccc(N4CCC(C#N)CC4)cc3)c12", 6.65],
  ["CC(C)c1nn(-c2cccc(N(C)C)c2)c2nc(C(=O)NS(C)(=O)=O)cc(N3CCC(C#N)CC3)c12", 6.70]
]}

----------
# target.entity: CFTR ΔF508 (Homo sapiens, UniProt P13569, DEL508-508)
# Construct: bronchial epithelial cells isolated from CF patients homozygous for the CFTR ΔF508 mutation; McGill University; Asterand; University of North Carolina hAEC-CF; host or cells: primary human bronchial epithelial cells from CF patients homozygous for ΔF508, differentiated at air-liquid interface
# method.notes: Chronic TECC assay, primary bronchial epithelial cells of CF patients homozygous for CFTR ΔF508 (corrector, co-corrector and potentiator)
# Format: cell-based
# experimental.parameters: chronic TECC; test compound at 1 μM; AUC = full area under the curve upon forskolin stimulation
Catalogue of % Activity at 1 μM (AUC**) readings, one per entry.

{"columns": ["compound", "result.units", "% Activity at 1 μM (AUC**)"],
 "data": [
  ["CN(C)S(=O)(=O)NC(=O)c1cc(N2CCN(c3ccncc3)CC2)c2c(C3CCC3)nn(C3CCCCC3)c2n1", "%", 293.3333],
  ["COCC1CCN(c2cc(C(=O)NS(=O)(=O)N(C)C)nc3c2c(C2CCC2)nn3-c2ccccc2)CC1", "%", 345.045],
  ["CC(C)c1nn(-c2ccnc(N3CCCC3)c2)c2nc(C(=O)NS(C)(=O)=O)cc(-c3ccc(N4CCC(C#N)CC4)nc3)c12", "%", 370.9],
  ["COCCS(=O)(=O)NC(=O)c1cc(N2CCC(COC)CC2)c2c(C(C)C)nn(CC3CCC3)c2n1", "%", 399.85],
  ["CN(C)S(=O)(=O)NC(=O)c1cc(N2CCC(CN3CCOCC3)CC2)c2c(C3CCC3)nn(-c3ccc(F)cc3)c2n1", "%", 420],
  ["CS(=O)(=O)NC(=O)c1cc(OCC2CCOCC2)c2c(C3CCC3)nn(-c3ccccc3)c2n1", "%", 364.3],
  ["COCC1CCN(c2cc(C(=O)NS(=O)(=O)CCCN3CCOCC3)nc3c2c(C(C)C)nn3-c2ccc(F)cc2)CC1", "%", 285.35],
  ["CN(C)S(=O)(=O)NC(=O)c1cc(N2CCC(N3CCC(C#N)CC3)CC2)c2c(C3CCC3)nn(-c3ccc(F)cc3)c2n1", "%", 666.6667],
  ["CS(=O)(=O)NC(=O)c1cc(N2CCC(N3CCOCC3)CC2)c2c(C3CCC3)nn(C3CCCCC3)c2n1", "%", 196.6667],
  ["COC(C)(C1CCN(c2cc(C(=O)NS(C)(=O)=O)nc3c2c(C2CCC2)nn3-c2ccccc2)CC1)C(F)(F)F (stereo not drawn)", "%", 308.45],
  ["CC(C)c1nn(-c2cccc(N(C)C)c2)c2nc(C(=O)NS(C)(=O)=O)cc(N3CCC(C#N)CC3)c12", "%", 190],
  ["CN(C)S(=O)(=O)NC(=O)c1cc(N2CCC(N3CCCC(C#N)C3)CC2)c2c(C3CCC3)nn(-c3ccc(F)cc3)c2n1 (stereo not drawn)", "%", 289.8854],
  ["COC1CCN(C2CCN(c3cc(C(=O)NS(N)(=O)=O)nc4c3c(C3CCC3)nn4-c3ccc(F)cc3)CC2)CC1", "%", 125.1944],
  ["COCCS(=O)(=O)NC(=O)c1cc(N2CCC(COC)CC2)c2c(C(C)C)nn(-c3ccc(F)cc3)c2n1", "%", 434.22],
  ["CS(=O)(=O)NC(=O)c1cc(OCCN2CCS(=O)(=O)CC2)c2c(C3CCC3)nn(-c3ccccc3)c2n1", "%", 165.81],
  ["CN(C)S(=O)(=O)NC(=O)c1cc(N2CCC(N3CCOC(C#N)C3)CC2)c2c(C3CCC3)nn(-c3ccc(F)cc3)c2n1 (stereo not drawn)", "%", 370.693],
  ["COC(=O)N1CCC2CN(c3cc(C(=O)NS(C)(=O)=O)nc4c3c(C3CCC3)nn4-c3ccccc3)CCC21 (stereo not drawn)", "%", 320],
  ["COCCN(CCOC)c1ccc(-c2cc(C(=O)NS(C)(=O)=O)nc3c2c(C(C)C)nn3-c2ccnc(N3CCOCC3)c2)cn1", "%", 248.51],
  ["CS(=O)(=O)NC(=O)c1cc(OCCC2CCOCC2)c2c(C3CCC3)nn(-c3ccccc3)c2n1", "%", 477.39],
  ["CN(C)S(=O)(=O)NC(=O)c1cc(N2CCC(CCN3CCOCC3)CC2)c2c(C3CCC3)nn(-c3ccc(F)cc3)c2n1", "%", 288.6036],
  ["COCC1CCN(c2cc(C(=O)NS(=O)(=O)C3CCOC3)nc3c2c(C2CCC2)nn3-c2ccccc2)CC1 (stereo not drawn)", "%", 583.16],
  ["CN(C)S(=O)(=O)NC(=O)c1cc(N2CCC(N3CCOCC3)CC2)c2c(C3CCC3)nn(-c3ccnc(OC(F)F)c3)c2n1", "%", 246.6667],
  ["COC1CN(S(=O)(=O)NC(=O)c2cc(N3CCC(N4CCOCC4)CC3)c3c(C4CCC4)nn(-c4ccc(F)cc4)c3n2)C1", "%", 380],
  ["COCC1CCN(c2cc(C(=O)NS(C)(=O)=O)nc3c2c(C2CCC2)nn3-c2ccc(F)cc2)CC1", "%", 452.88],
  ["CN(C)S(=O)(=O)NC(=O)c1cc(N2CCC(N3CCC(F)C3)CC2)c2c(C3CCC3)nn(-c3ccc(F)cc3)c2n1 (stereo not drawn)", "%", 320],
  ["CS(=O)(=O)NC(=O)c1cc(N2CCC(OCC3CC3)CC2)c2c(C3CCC3)nn(-c3ccccc3)c2n1", "%", 265.44],
  ["CC(C)c1nn(-c2ccnc(N3CCCC3)c2)c2nc(C(=O)NS(C)(=O)=O)cc(-c3ccc(N4CCC(C#N)CC4)cc3)c12", "%", 210]
]}
